Provenance of the data: PubChem BioAssay AID1626

experiment: M. tuberculosis H37Rv growth inhibitors, H37Rv strain (AID 1626); conditions: hits give high values, concentration not given here;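 further: bacteria incubated seven days before Alamar blue readout; 0% = bacteria only wells and 100% = bacteria with antibiotic wells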
Hit rate of the full screen: of about 220,000 compounds, about 2,000 (0.91%) were called active. Inconclusive results (about 2%) are left out. The list is a sample of the results. Entries with a potency or affinity are not part of this list.
Attribute Measured: inhibition (%)
Write the value in % as a bare number.

Illustrative cases are given below, each with its answer.
[
  {
    "Compound": "O=C(Cc1ccc(Br)cc1)Nc1ccc(Cl)cc1",
    "Unit": "%",
    "Measurement": -2.03
  },
  {
    "Compound": "Cc1nnc(Sc2cc(NCCO)c([N+](=O)[O-])c3nonc23)s1",
    "Unit": "%",
    "Measurement": -7.45
  },
  {
    "Compound": "OC1CCN(c2cc(-c3ccccc3)nc3cc(-c4ccc(F)cc4)nn23)CC1",
    "Unit": "%",
    "Measurement": 5.18
  },
  {
    "Compound": "CCCCn1c(/N=C/c2ccc(N(C)C)cc2)nc2ccccc21",
    "Unit": "%",
    "Measurement": -13.8
  }
]

Input: Complete the entry with inhibition for `CCOC(=O)CSc1nc(-c2ccc(OC)cc2)ns1`
Output: 57.1

Input: Please look at this compound and report its inhibition: O=C(Nc1cccc(C(F)(F)F)c1)C1CCCN1S(=O)(=O)c1cccc2cccnc12 (centres undefined)
Output: -8.3

Input: For the compound `O=C(c1cnc2sccn2c1=O)N1CCCc2ccccc21` , give its reported inhibition.
Output: 0.62

Input: Note down inhibition recorded for `CCN(CC)C(=O)CSc1nnc2nnc3cc(C)ccc3n12`
Output: 65.9

---

test: M. tuberculosis H37Rv growth inhibitors, H37Rv strain (AID 1626); settings: hits give high values, concentration not given here
Out of some 220,000 compounds screened, about 2,000 (0.91%) were called active. Inconclusive results (about 2%) are left out. A selection follows. Results with a measured potency or affinity are listed apart.
The following compounds are listed with their measured inhibition values.
Respond with the bare value in %.

Examples from the recorded data:
[
  {
    "Compound": "O=C(O)c1ccc(-c2nc(-c3ccc(Cl)c(Cl)c3)cs2)cc1",
    "Unit": "%",
    "inhibition": 8.4
  },
  {
    "Compound": "COc1ccc(OC)c(CN2CCCC(C(=O)c3ccccc3SC)C2)c1 (stereo unspecified)",
    "Unit": "%",
    "inhibition": 5
  },
  {
    "Compound": "Cc1ncc(CN2CCCC(C(=O)c3cccc(OC(C)C)c3)C2)s1 (stereo unspecified)",
    "Unit": "%",
    "inhibition": -0.24
  },
  {
    "Compound": "O=C(O)c1ccc(-c2nc(-c3ccccc3)cs2)cc1",
    "Unit": "%",
    "inhibition": -1.73
  },
  {
    "Compound": "COc1ccc(O)c(CN2CCCC(C(=O)c3ccccc3SC)C2)c1 (stereo unspecified)",
    "Unit": "%",
    "inhibition": -3.14
  }
]

Input: Output inhibition of CCOC(=O)N1CCC(N2CCCC(C(=O)c3cc(C)c(OC)c(C)c3)C2)CC1 (stereo unspecified)
Output: -0.88

---

assay: M. tuberculosis H37Rv growth inhibitors, H37Rv strain (AID 1626); details: hits give high values, concentration not given here
Screen size: about 220,000 compounds; about 2,000 (0.91%) were called active. About 2% were inconclusive and are not listed. The list is a sample of the results. Measured potencies and affinities stand elsewhere.
Attribute Measured: inhibition (%)
Write down the numeric answer in % and omit the unit.

Input: Using known records, supply inhibition for `Cc1cc(C)c(C(=O)Nc2ccc(Br)c(C(F)(F)F)c2)c(C)c1`
Output: 50.8

---

test: M. tuberculosis H37Rv growth inhibitors, H37Rv strain (AID 1626); conditions: hits give high values, concentration not given here
In all, about 220,000 compounds went through this assay and about 2,000 (0.91%) were called active. Another 2% or so got no clear call; they are omitted. The list is a sample of the results. Results with a measured potency or affinity are listed apart.
# reported inhibition; entries follow
# value in %; strip the unit string

[
  {
    "Molecule": "O=C(Nc1ccccn1)C(=O)Nc1ccccn1",
    "inhibition [%]": -5
  },
  {
    "Molecule": "CCCCNC(=O)Nc1ccccn1",
    "inhibition [%]": -6.21
  },
  {
    "Molecule": "N#CCC(=O)Nc1ncc(Cc2ccccc2Cl)s1",
    "inhibition [%]": 5.63
  },
  {
    "Molecule": "COc1ccc2nc(/N=C\\N(C)C)sc2c1",
    "inhibition [%]": 5.98
  },
  {
    "Molecule": "Cc1cccc(Cc2cnc(NC(=O)c3ccc(C)o3)s2)c1",
    "inhibition [%]": 21.9
  }
]

Input: // fetch inhibition given entry Cc1ccc(CC2C(=O)N(c3ncccn3)C(=O)C2C)cc1 (configuration not stated)
Output: -0.53

Input: Input `CNc1ncc(Cc2ccccc2)s1` , output reported inhibition.
Output: 14.7

---

assay: M. tuberculosis H37Rv growth inhibitors, H37Rv strain (AID 1626); conditions: hits give high values, concentration not given here;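 further: bacteria incubated seven days before Alamar blue readout; 0% = bacteria only wells and 100% = bacteria with antibiotic wells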
Screen size: about 220,000 compounds; about 2,000 (0.91%) were called active. About 2% were inconclusive and are not listed. Only a sample is shown. Entries with a potency or affinity are not part of this list.
Attribute Measured: inhibition (%)
Respond with the bare value in %.

[
  {
    "Compound": "CSc1sc(-c2n[nH]c(=S)n2C)c2c1C=CCC2",
    "Attribute Measured": "inhibition",
    "Unit": "%",
    "Measurement": 5.83
  },
  {
    "Compound": "CCCCC1=CC2=CC(=O)C(C)(OC(=O)CC)C(=O)C2=CN1CCN1CCOCC1 (stereo not given)",
    "Attribute Measured": "inhibition",
    "Unit": "%",
    "Measurement": 2.28
  },
  {
    "Compound": "Cc1ccc(-c2noc(CCC(=O)Nc3ccc(C)cn3)n2)cc1",
    "Attribute Measured": "inhibition",
    "Unit": "%",
    "Measurement": 25.6
  },
  {
    "Compound": "Cc1ccc(NS(=O)(=O)c2cc(C(=O)NCc3ccccn3)ccc2Cl)cc1C",
    "Attribute Measured": "inhibition",
    "Unit": "%",
    "Measurement": 4.55
  },
  {
    "Compound": "Cc1[nH]nc2c1C(c1ccco1)C(C#N)=C(N)O2 (stereo not given)",
    "Attribute Measured": "inhibition",
    "Unit": "%",
    "Measurement": 5.49
  },
  {
    "Compound": "O=C(N/N=C/c1ccccc1F)NC1CCCCC1",
    "Attribute Measured": "inhibition",
    "Unit": "%",
    "Measurement": 6.4
  }
]

Then this compound:
Input: Quick one: give measured inhibition for `CCc1ccccc1NC(=O)CCc1nc(-c2ccc(C)cc2)no1`
Output: -5.75

---

experiment: M. tuberculosis H37Rv growth inhibitors, H37Rv strain (AID 1626); conditions: hits give high values, concentration not given here;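 further: bacteria incubated seven days before Alamar blue readout; 0% = bacteria only wells and 100% = bacteria with antibiotic wells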
The campaign covered roughly 220,000 compounds. About 2,000 (0.91%) were called active. Another 2% or so got no clear call; they are omitted. Not all results are given here. Potency and affinity values are given separately.
Attribute Measured: inhibition

[
  {
    "Molecule": "COC(=O)C1CCN(C(=O)COC(=O)Cc2c[nH]c3ccccc23)CC1",
    "inhibition": "2.16% (inactive)"
  },
  {
    "Molecule": "COc1ccc(CNC(=O)COC(=O)CCc2c[nH]c3ccccc23)cc1",
    "inhibition": "4.73% (inactive)"
  },
  {
    "Molecule": "CCN(CC)S(=O)(=O)c1ccc(N2CCOCC2)c(NC(=O)c2cccc3ccccc23)c1",
    "inhibition": "11.2% (inactive)"
  },
  {
    "Molecule": "Cc1cccc(NC(=S)N(Cc2cccs2)Cc2cc3cc(C)ccc3[nH]c2=O)c1",
    "inhibition": "8.62% (inactive)"
  }
]

Now for a further molecule.
Input: # return recorded inhibition for entry CC1C(c2ccccc2)=NNc2nc3c(c(=O)n(C)c(=O)n3C)n21 (stereo not given)
Output: -9.85% (inactive)

---

test: M. tuberculosis H37Rv growth inhibitors, H37Rv strain (AID 1626); conditions: hits give high values, concentration not given here;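 further: bacteria incubated seven days before Alamar blue readout; 0% = bacteria only wells and 100% = bacteria with antibiotic wells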
Screen size: about 220,000 compounds; about 2,000 (0.91%) were called active. Roughly 2% stayed inconclusive and do not appear here. A selection follows. Potency and affinity values are given separately.
Attribute Measured: inhibition (%)
Give the value in % but do not write % after it.

[
  {
    "Compound": "CCOc1ccc(NC(=O)CC2SC(N)=NC2=O)c([N+](=O)[O-])c1 (stereo unspecified)",
    "Attribute Measured": "inhibition",
    "Unit": "%",
    "Measurement": 2.3
  },
  {
    "Compound": "CC(C)n1nnc2c(=O)oc3ccccc3c21",
    "Attribute Measured": "inhibition",
    "Unit": "%",
    "Measurement": 11.1
  },
  {
    "Compound": "O=C(Cc1ccc(S(=O)(=O)N2CCCC2)s1)Nc1nc2c(s1)CCCC2",
    "Attribute Measured": "inhibition",
    "Unit": "%",
    "Measurement": 1.89
  },
  {
    "Compound": "CC(=O)c1c(C)[nH]c(C(=O)NCCc2cccc(C)c2)c1C",
    "Attribute Measured": "inhibition",
    "Unit": "%",
    "Measurement": 3.77
  }
]

Input: Answer with reported inhibition of `COc1cc(-c2cc(C(=O)Nc3ccc(S(=O)(=O)Nc4ncccn4)cc3)c3ccccc3n2)cc(OC)c1OC`
Output: 40.2

Input: Fill in inhibition for record `Clc1ccc(-c2nnc(NC3=NCCCCC3)o2)cc1`
Output: -12.1

Input: Return the recorded inhibition value; entry: `CNC(=O)COC(=O)/C=C/c1ccco1`
Output: -4.68

Input: Return value of inhibition for input `COc1ccc(CNC(=O)COC(=O)/C=C/c2ccc(Cl)cc2)cc1` , no commentary.
Output: 2.04

Input: Please report the measured inhibition for c1ccc(C(c2ccccc2)N2CCN(C(c3ccccn3)c3nnnn3C3CCCC3)CC2)cc1 (stereo unspecified)
Output: 6.45

Input: Determine its reported inhibition: `CCCCN(CC)CCCNC(=S)Nc1ccc2nc3n(c(=O)c2c1)CCCCC3`
Output: -5.11

Input: Report inhibition for CC1Cc2ccccc2N1C(=O)c1ccc(N2CCCC2)c([N+](=O)[O-])c1 (stereo unspecified)
Output: 4.46
